assayed.target: T1, huKv1.3 (Homo sapiens, UniProt P22001)
T1 construct: host or cells: CHO
T1 sequence (P22001 whole entry): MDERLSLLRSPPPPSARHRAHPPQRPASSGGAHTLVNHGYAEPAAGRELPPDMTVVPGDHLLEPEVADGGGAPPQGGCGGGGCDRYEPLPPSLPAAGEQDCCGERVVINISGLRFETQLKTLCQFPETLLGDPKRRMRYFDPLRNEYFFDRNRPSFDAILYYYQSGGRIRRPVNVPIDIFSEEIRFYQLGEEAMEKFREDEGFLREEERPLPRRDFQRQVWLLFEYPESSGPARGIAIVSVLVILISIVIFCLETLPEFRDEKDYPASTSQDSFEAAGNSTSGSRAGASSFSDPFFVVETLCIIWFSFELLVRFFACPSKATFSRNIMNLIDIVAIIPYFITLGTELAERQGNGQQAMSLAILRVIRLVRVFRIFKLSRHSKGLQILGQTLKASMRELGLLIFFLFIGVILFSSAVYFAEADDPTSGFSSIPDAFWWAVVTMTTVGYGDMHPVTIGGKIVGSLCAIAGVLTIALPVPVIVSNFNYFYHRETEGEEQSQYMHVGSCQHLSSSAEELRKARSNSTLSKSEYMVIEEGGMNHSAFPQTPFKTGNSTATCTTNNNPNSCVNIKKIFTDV
experiment: QPatch automated whole-cell patch-clamp, CHO cells stably expressing huKv1.3 (Example 8)
Assay type: cell-based
condition.set: Kv1.3 channels, IgG KnotBody, Table 11A
pIC50: −log10 of the molar value.
readout: pIC50

KB_A07: EETI-II knottin fused into VL CDR2, D1A12 VH; parental KnotBody, isotype control (antibody, V domains shown) VH: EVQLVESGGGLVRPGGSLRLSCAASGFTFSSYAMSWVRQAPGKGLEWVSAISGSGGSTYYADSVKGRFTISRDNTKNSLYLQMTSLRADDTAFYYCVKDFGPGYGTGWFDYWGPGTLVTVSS VL: DIQMTQSPSSLSASVGDRVTITCRASQSISSYLNWYQQKPGKAPKLLIYAAGVCPRILMRCKQDSDCLAGCVCGPNGFCGSRSGVPSRFSGSGSGTDFTLTISSLQPEDFATYYCQQGASPPYTFGQGTKVEIKRT; < 5.00
